Provide the reported YAP1 (% UTC) of each item.
Test system: Yap1 mRNA
assay_details: Antisense inhibition of human Yap1 in A-431 cells by cEt gapmers, single dose (Example 2, RTS4814)
Type: cell-based
test_parameters: Table 20; Yap1 mRNA, percent of untreated control; 3-10-3 cEt gapmers targeting SEQ ID NO.: 1 and 2
Experimental: Modified oligonucleotides were designed to target a Yap1 nucleic acid and were tested for their effect on Yap1 mRNA level in vitro. The modified oligonucleotides were tested in a series of experiments that had similar culture conditions. […] After a treatment period of approximately 48 hours, RNA was isolated from the cells and Yap1 mRNA levels were measured by quantitative real-time RTPCR. […] Yap1 mRNA levels were normalized to total RNA content, as measured by RIBOGREEN®. […]
Strand notation (5' to 3'): a small letter for the sugar, then the base; units joined by * are phosphorothioate-linked, units joined directly phosphodiester-linked; [ ] holds rarer units or linkages, { } end groups; capitals alone tell only the bases. k = constrained ethyl (cEt); [5mC] = 5-methylcytosine; d = 2'-deoxy (DNA)
Numbers only, in % UTC.

# count of solved cases: 6
> print(dat)
                                  substance  display.unit  recorded.measurement
1  1074182 (antisense kG*k[5mC]*k[5mC]*d[5mC]*dG*dG*dG*dA*dT*d[5mC]*d[5mC]*dA*dT*kG*kG*k[5mC]) [Compound 1074182]         % UTC                    82
2  1075462 (antisense kG*kT*kT*dT*dA*dT*dA*dG*dA*d[5mC]*dA*dA*dG*kT*k[5mC]*kA) [Compound 1075462]         % UTC                    15
3  1075846 (kG*kA*kT*dT*dA*dA*dG*dA*dG*d[5mC]*d[5mC]*dT*dA*kT*k[5mC]*kT; antisense) [Compound 1075846]         % UTC                    96
4  1075430 (antisense k[5mC]*kT*kT*dA*dA*d[5mC]*dT*dA*dA*d[5mC]*dT*dT*dG*kA*k[5mC]*k[5mC]) [Compound 1075430]         % UTC                    96
5  1075782 (kT*kA*kT*dT*dA*dG*dG*dT*dT*dT*d[5mC]*d[5mC]*d[5mC]*kG*kT*kT; antisense) [Compound 1075782]         % UTC                    10
6  1074822 (kT*kA*kG*dA*dA*dA*dA*dG*dT*dG*dT*dT*dA*kA*kG*k[5mC]; antisense) [Compound 1074822]         % UTC                    25

For each listed entry, give its YAP1 (% UTC).
1. 1075142 (antisense kG*kA*kT*dA*dT*dA*d[5mC]*dG*dA*dG*dA*dA*dG*kT*kT*kG) [Compound 1075142]
2. 1074630 (antisense kA*kG*kA*dG*dA*dT*dT*dT*dT*dA*dT*dG*d[5mC]*k[5mC]*kT*kG) [Compound 1074630]
3. 1075046 (antisense kA*kA*kA*dA*dT*dT*dA*dG*dA*d[5mC]*dT*d[5mC]*d[5mC]*k[5mC]*k[5mC]*k[5mC]) [Compound 1075046]
4. 1076550 (antisense kT*kA*k[5mC]*d[5mC]*dA*dA*d[5mC]*d[5mC]*dT*dG*dT*dA*dT*k[5mC]*k[5mC]*kA) [Compound 1076550]
5. 1075718 (k[5mC]*k[5mC]*kA*d[5mC]*dT*dA*dA*dA*dA*d[5mC]*d[5mC]*dA*dA*kG*kT*kT; antisense) [Compound 1075718]
6. 1074278 (antisense k[5mC]*kT*kT*dG*dG*dG*dT*d[5mC]*dT*dA*dG*d[5mC]*d[5mC]*kA*kA*kG) [Compound 1074278]

Result:
[16, 5, 12, 61, 48, 31]

Values were extracted from patent US11214803B2.
